target: S2 (YIYRNYPDF), sense peptide surrogate of AtxA neurotoxic site (Vipera ammodytes ammodytes); test: biochemical; format: binding; settings: 100% DMSO; 25 °C; read-out: KD (σ)
No end group written: not given here.

{"polymer sequence": "INISIVGVK [S2A1, Ile-Asn-Ile-Ser-Ile-Val-Gly-Val-Lys]", "Kd, µM": 1.1}
{"polymer sequence": "VNISVIGIK [S2A2, Val-Asn-Ile-Ser-Val-Ile-Gly-Ile-Lys]", "Kd, µM": 8.9}

###

target: S1 (GMMILG), sense peptide surrogate of AtxA neurotoxic site (Vipera ammodytes ammodytes, UniProt P00626); assay: biochemical; format: binding; settings: 100% DMSO; 25 °C; read-out: KD (σ)
pKd: −log10 of the molar value. No end group written: not given here.

{"substance": "SHHYEP [S1A1, Ser-His-His-Tyr-Glu-Pro]", "pKd": 5.31}
{"substance": "SHHYSP [S1A2, Ser-His-His-Tyr-Ser-Pro]", "pKd": 5.85}
